Cited source for all entries: ChEMBL document CHEMBL5252581

- TEST_DESCRIPTION: Resistance index, ratio of IC50 for antimalarial activity against multidrug resistant Plasmodium falciparum Dd2 to IC50 for antimalarial activity against chloroquine sensitive Plasmodium falciparum 3D7
- Format: toxicity
The entries below come with measured Ratio IC50 values attached.
MEASURED_ENDPOINT: Ratio IC50

{"columns": ["QUERY_SMILES", "MEASURED_ENDPOINT", "RECORDED_NUMBER"],
 "data": [
  ["COC(=O)c1cc2c(c(OC)c1OC)[C@H](C)C[C@@H](OC(=O)Nc1cc(C(F)(F)F)cc(C(F)(F)F)c1)[C@H]2[C@@H](C)CCC=C(C)C", "Ratio IC50", 2.5],
  ["COC(=O)c1cc2c(c(OC)c1OC)[C@H](C)C[C@@H](OC(=O)Nc1ccc([N+](=O)[O-])cc1)[C@H]2[C@@H](C)CCC=C(C)C", "Ratio IC50", 1.3],
  ["COC(=O)c1cc2c(c(OC)c1OC)[C@H](C)C[C@@H](OC(=O)Nc1ccc(F)cc1)[C@H]2[C@@H](C)CCC=C(C)C", "Ratio IC50", 1.2],
  ["COc1ccc(C[C@H](N)C(=O)N[C@H]2[C@@H](O)[C@H](n3cnc4c(N(C)C)ncnc43)O[C@@H]2CO)cc1", "Ratio IC50", 1.9],
  ["COC(=O)c1cc2c(c(OC)c1OC)[C@H](C)C[C@@H](OC(=O)Nc1ccc(C)cc1)[C@H]2[C@@H](C)CCC=C(C)C", "Ratio IC50", 1.1],
  ["COC(=O)c1cc2c(c(OC)c1OC)[C@H](C)C[C@@H](OC(=O)Nc1cccc(Cl)c1)[C@H]2[C@@H](C)CCC=C(C)C", "Ratio IC50", 1],
  ["COC(=O)c1cc2c(c(OC)c1OC)[C@H](C)C[C@@H](OC(=O)Nc1ccc(OC)cc1)[C@H]2[C@@H](C)CCC=C(C)C", "Ratio IC50", 1.1]
]}
